Reference source for all entries: patent US11547681B2

- method summary: in vitro
- run conditions: both, human, 20 min, 1 μM
true (1) if Measured concentration of analyte PEA, 20 min is below 0.2 µM. false (0) if not; exact matches included in false (0).

INSERT INTO measurements (compound, class) VALUES
  ('CCCCCCCCCCCCCCCC(=O)NCCOC(=O)CCC(=O)OC[C@H]1O[C@@](CO)(O[C@H]2O[C@H](CO)[C@@H](O)[C@H](O)[C@H]2O)[C@@H](O)[C@@H]1O', 'false (0)'),
  ('CC/C=C\C/C=C\C/C=C\C/C=C\C/C=C\CCCC(=O)OCCNC(=O)CCCCCCCCCCCCCCC', 'true (1)'),
  ('CCCCCCCCCCCCCCCC(=O)NCCOC(=O)CCC', 'true (1)'),
  ('CCCCCCCCCCCCCCCC(=O)NCCOC(=O)CCC(=O)OCC(O)CO (stereo not shown)', 'false (0)'),
  ('CCCCCCCCCCCCCCCC(=O)NCCOC(=O)CCC(=O)OCC(COC(=O)CCCCCCC)OC(=O)CCCCCCC (stereo not shown) [Compound I-3, PEA-Succinate-Glycerol-Di-Caprylic]', 'true (1)');

Now examine the next entry.
Just wondering, is Measured concentration of analyte PEA, 20 min of CCCCC/C=C\C/C=C\CCCCCCCC(=O)OCCNC(=O)CCCCCCCCCCCCCCC below 0.2 µM? true (1)

* * *

- method summary: Intestinal S9 fraction stability, dog
- run conditions: male, Beagle, dog, s9, CLint, Dog intestinal S9 fraction, control compound
- Procedure: Reaction mixture, minus cofactors, was prepared as described below. Test article was added into the reaction mixture at a final concentration of 1 μM. […] Halflives were calculated using GraphPad software, fitting to a single-phase exponential decay equation. Reaction mixture, minus cofactors, was prepared as described below. […] Halflives were calculated using GraphPad software, fitting to a single-phase exponential decay equation. […]
observed property: microsomal CLint

Write down microsomal CLint measured for item C[C@]12CC[C@H]3[C@@H](CCC4=CC(=O)CC[C@@]43C)[C@@H]1CC[C@@H]2O [Testosterone, testosterone, reference compound] < 11.6 µL/min/mg

* * *

- method summary: in vitro
- run conditions: both, human, 10 min, 1 μM
Listing: Measured concentration of analyte PEA, 10 min of selected compounds
Could you give me the number in µM? Just the number is fine.

Below are worked cases with known answers.
INSERT INTO assay_data (compound, result_units, data_value) VALUES
  ('CCCCCCCCCCCCCCCC(=O)NCCOC(=O)CCC(=O)OC[C@H]1O[C@@](CO)(O[C@H]2O[C@H](CO)[C@@H](O)[C@H](O)[C@H]2O)[C@@H](O)[C@@H]1O', 'µM', 0.39),
  ('CC/C=C\C/C=C\C/C=C\C/C=C\C/C=C\CCCC(=O)OCCNC(=O)CCCCCCCCCCCCCCC', 'µM', 0.020),
  ('CCCCCCCCCCCCCCCC(=O)NCCOC(=O)CCC', 'µM', 0.23);

We next turn to a different compound, shown below.
Write down Measured concentration of analyte PEA, 10 min measured for item CCCCCCCCCCCCCCCC(=O)NCCOC(=O)CCC(=O)OCC(COC(=O)CCC)OC(=O)CCC (stereo not shown) 0.29

* * *

Listing: % Remaining of Initial (n = 1) of selected compounds
- method summary: Simulated intestinal fluid (SIF) stability in the presence of various enzymes
- Assay type: in vitro ADME
- run conditions: SIF + Trypsin, 60 min, 1 μM
Could you give me the number in %? Just the number is fine.

Below are worked cases with known answers.
INSERT INTO results (compound, data_value) VALUES
  ('CCCCCCCCCCCCCCCC(=O)NCCOC(=O)CCC', 75),
  ('CCCCCCCCCCCCCCCC(=O)NCCOC(=O)CCC(=O)OCC(COC(=O)CCCCCCC)OC(=O)CCCCCCC (stereo not shown) [Compound I-3, PEA-Succinate-Glycerol-Di-Caprylic]', 55),
  ('CC/C=C\C/C=C\C/C=C\C/C=C\C/C=C\CCCC(=O)OCCNC(=O)CCCCCCCCCCCCCCC', 44);

We next turn to a different compound, shown below.
Write down % Remaining of Initial (n = 1) measured for item CCCCC/C=C\C/C=C\CCCCCCCC(=O)OCCNC(=O)CCCCCCCCCCCCCCC 83

* * *

- method summary: in vitro
- run conditions: male, Sprague-Dawley, rat, s9, Half-life (min), calculated half-life in parentheses
observed property: half-life at 1 μM (min)
Could you give me the number in min? Just the number is fine.

Write down half-life at 1 μM measured for item CCCCC/C=C\C/C=C\CCCCCCCC(=O)OCCNC(=O)CCCCCCCCCCCCCCC [Compound I-6] 91

* * *

- method summary: Plasma stability (37° C., pH 7.4), human
- Type: in vitro ADME
- run conditions: both sexes, human, plasma, pH 7.4, Human plasma, 1 μM; read-out: Half-life
observed property: half-life at 1 μM (min)
Could you give me the number in min? Just the number is fine.

Write down half-life at 1 μM measured for item CCCCC/C=C\C/C=C\CCCCCCCC(=O)OCC(COC(=O)CCC(=O)OCCNC(=O)CCCCCCCCCCCCCCC)OC(=O)CCCCCCC/C=C\C/C=C\CCCCC (stereo not shown) [Compound I-13] 120

* * *

- method summary: Liver microsomal stability, rat
- run conditions: male, Sprague-Dawley, microsomes, Half-life, Control compound, Rat liver microsomes
observed property: half-life (min)
Could you give me the number in min? Just the number is fine.

Write down half-life measured for item C[C@]12CC[C@H]3[C@@H](CCC4=CC(=O)CC[C@@]43C)[C@@H]1CC[C@@H]2O [Testosterone, testosterone, reference compound] 1.8

* * *

- method summary: in vitro
- run conditions: male, Beagle, dog, 0 min, 1 μM
observed property: Concentration (μM) of analyte PEA, 0 min (µM)
Could you give me the number in µM? Just the number is fine.

INSERT INTO measurements (compound, result_units, data_value) VALUES
  ('CCCCCCCCCCCCCCCC(=O)NCCOC(=O)CCC(=O)OCC(COC(=O)CCC)OC(=O)CCC (stereo not shown)', 'µM', 0.069),
  ('CCCCCCCCCCCCCCCC(=O)NCCOC(=O)CCC(=O)OCC(O)CO (stereo not shown)', 'µM', 0.32),
  ('CC/C=C\C/C=C\C/C=C\C/C=C\C/C=C\CCCC(=O)OCCNC(=O)CCCCCCCCCCCCCCC', 'µM', 0.024);

Write down Concentration (μM) of analyte PEA, 0 min measured for item CCCCCCCCCCCCCCCC(=O)NCCOC(=O)CCC(=O)OCC(COC(=O)CCCCCCC)OC(=O)CCCCCCC (stereo not shown) [Compound I-3, PEA-Succinate-Glycerol-Di-Caprylic] 0.010

* * *

Listing: Concentration (μM) of analyte PEA, 30 min of selected compounds
- method summary: in vitro
- run conditions: male, Beagle, dog, 30 min, 1 μM
Could you give me the number in µM? Just the number is fine.

Below are worked cases with known answers.
INSERT INTO results (compound, data_value) VALUES
  ('CCCCCCCCCCCCCCCC(=O)NCCOC(=O)CCC(=O)OCC(O)CO (stereo not shown) [Compound I-9]', 0.18),
  ('CC/C=C\C/C=C\C/C=C\C/C=C\C/C=C\CCCC(=O)OCCNC(=O)CCCCCCCCCCCCCCC [Compound I-5]', 0.041),
  ('CCCCCCCCCCCCCCCC(=O)NCCOC(=O)CCC(=O)OCC(COC(=O)CCCCCCC)OC(=O)CCCCCCC (stereo not shown) [Compound I-3, PEA-Succinate-Glycerol-Di-Caprylic]', 0.031);

We next turn to a different compound, shown below.
Write down Concentration (μM) of analyte PEA, 30 min measured for item CCCCCCCCCCCCCCCC(=O)NCCOC(=O)CCC [Compound I-2] 0.21

* * *

- method summary: Pharmacokinetics of PEA after intravenous administration in male Sprague-Dawley rats
- Type: in vivo, Sprague-Dawley rat
- run conditions: male, Sprague-Dawley, rat, in vivo, iv, 1 mg/kg
observed property: Tmax (h)
Could you give me the number in h? Just the number is fine.

Write down Tmax measured for item CCCCCCCCCCCCCCCC(=O)NCCO [PEA, palmitoylethanolamide] 0

* * *

- method summary: in vitro
- run conditions: both, human, s9, Half-Life, calculated value in parentheses
observed property: half-life at 1 μM (min)
Could you give me the number in min? Just the number is fine.

Write down half-life at 1 μM measured for item CCCCCCCCCCCCCCCC(=O)NCCOC(=O)CCC(=O)OCC(O)CO (stereo not shown) 9.2

* * *

- method summary: in vitro
- run conditions: male, Sprague-Dawley, rat, s9, 1 h, 1 μM
observed property: % Remaining of Initial (n = 1), 60 min (%)
Could you give me the number in %? Just the number is fine.

INSERT INTO measurements (molecule, observed_property, result_units, data_value) VALUES
  ('CCCCCCCCCCCCCCCC(=O)NCCOC(=O)CCC(=O)OCC(O)CO (stereo not shown)', '% Remaining of Initial (n = 1), 60 min', '%', 3.6),
  ('CCCCCCCCCCCCCCCC(=O)NCCOC(=O)CCC(=O)OC[C@H]1O[C@@](CO)(O[C@H]2O[C@H](CO)[C@@H](O)[C@H](O)[C@H]2O)[C@@H](O)[C@@H]1O', '% Remaining of Initial (n = 1), 60 min', '%', 13),
  ('CCCCC/C=C\C/C=C\CCCCCCCC(=O)OCCNC(=O)CCCCCCCCCCCCCCC', '% Remaining of Initial (n = 1), 60 min', '%', 59),
  ('CCCCCCCCCCCCCCCC(=O)NCCOC(=O)CCC(=O)OCC(COC(=O)CCCCCCC)OC(=O)CCCCCCC (stereo not shown) [Compound I-3, PEA-Succinate-Glycerol-Di-Caprylic]', '% Remaining of Initial (n = 1), 60 min', '%', 31);

We next turn to a different molecule, shown below.
Write down % Remaining of Initial (n = 1), 60 min measured for item CC/C=C\C/C=C\C/C=C\C/C=C\C/C=C\CCCC(=O)OCCNC(=O)CCCCCCCCCCCCCCC 44
